- Assay type: in vivo, human
- cond: human, plasma, oral, 150 mg
quantity_kind: AUC(0-t) (ng·h/mL)
Could you give me the number in ng·h/mL? Just the number is fine.

Enquiry: Quick one: give measured AUC(0-t) for C#Cc1cccc(Nc2ncnc3cc(OCCOC)c(OCCOC)cc23)c1
Return: 29300
